# T/C values compiled below
Tested on: L1210 leukemia ip in BDF1 mice, survival T/C
Experiment: NCI In Vivo Anticancer Drug Screen. Data for tumor model L1210 Leukemia (intraperitoneal) in B6D2F1 (BDF1) mice
Settings: endpoint: mean survival time; dose: 200.0 mg/kg/injection; schedule: Q04DX002 (ip); vehicle: Klucel (hydroxypropylcellulose) (HPC); higher = longer survival
Procedure: The antitumor activity of compounds was measured in mice bearing transplantable tumors. Survival or tumor size were measured and the results are expressed as the measurement made in the treated group (T) divided by the measurement made in the vehicle treated control group (C). The tumor model used in this assay is L1210 Leukemia (intraperitoneal) in B6D2F1 (BDF1) mice
Toxic doses and inconclusive results are not listed.
observed property: T/C

smiles string	observed property	reported
Nc1ccccc1C(=O)N/N=C/c1ccc(Cl)cc1Cl	T/C	102 % of control
CCOC(=S)SCC(=O)c1ccc(Br)cc1	T/C	92 % of control
CCOC(=O)CNc1ccc(Br)cc1	T/C	108 % of control
OCCOc1ccc(Br)cc1	T/C	95 % of control
O=C1OC(c2ccccc2)=N/C1=C\c1cccnc1	T/C	86 % of control

###

test system: L1210 leukemia ip in BDF1 mice, survival T/C; experiment: NCI In Vivo Anticancer Drug Screen. Data for tumor model L1210 Leukemia (intraperitoneal) in B6D2F1 (BDF1) mice; settings: endpoint: mean survival time; dose: 150.0 mg/kg/injection; schedule: Q01DX001 (ip); vehicle: other; higher = longer survival
Toxic doses and inconclusive results are not listed.
observed property: T/C

molecule	reported
C=C(C)C#CCN(CCO)C(C)C	96 % of control
COc1cc(/C=N/NC(=O)C(=O)N/N=C/c2cc(OC)c(OC)c(OC)c2)cc(OC)c1OC	90 % of control
O=C(NCCN1CCCCC1)C(O)(c1ccccc1)C1CCCCC1 (centres undefined)	100 % of control
Cc1nn(C)c2c(N)ncnc12	102 % of control

###

tested on: L1210 leukemia ip in BDF1 mice, survival T/C; assay: NCI In Vivo Anticancer Drug Screen. Data for tumor model L1210 Leukemia (intraperitoneal) in B6D2F1 (BDF1) mice; conditions: endpoint: mean survival time; dose: 50.0 mg/kg/injection; schedule: Q01DX001 (ip); vehicle: Klucel (hydroxypropylcellulose) (HPC); higher = longer survival
Toxic doses and inconclusive results are not listed.
// T/C lookup, one value per entry

molecule	T/C
O=C(O)c1cc2ccccc2c2c1ccc1ccccc12	92 % of control
Cc1nc2c(N)nnc(N)c2nc1C	93 % of control
Nc1nc(N)nc(CBr)n1	115 % of control
COC1(C(=O)OOC(C)(C)C)CC1(c1ccccc1)c1ccccc1 (centres undefined)	107 % of control

###

system: L1210 leukemia ip in BDF1 mice, survival T/C; assay: NCI In Vivo Anticancer Drug Screen. Data for tumor model L1210 Leukemia (intraperitoneal) in B6D2F1 (BDF1) mice; conditions: endpoint: mean survival time; dose: 100.0 mg/kg/injection; schedule: Q01DX009 (ip); vehicle: other
Toxic doses and inconclusive results are not listed. No stated cut-off is given here; in the data, active means T/C of 150% or more; inactive means T/C below 125%.
Classes used: true (1) = active, false (0) = inactive

compound	class label
CC1=NCCc2c1cc1c([nH]c3ccccc31)c2C	true (1)
CN(C)S(=O)(=O)c1ccccc1C1(O)CCCCC1	false (0)
COc1cc(NC(C)CCCN2C(=O)c3ccccc3C2=O)c2nc(-c3ccc(Cl)cc3)ccc2c1 (centres undefined)	false (0)
Cc1cccc(C)c1N=C=O	false (0)

Data provenance is PubChem BioAssay AID248.
